Molecular target: Adenosine receptor A3 (Homo sapiens)
Sequence (whole entry): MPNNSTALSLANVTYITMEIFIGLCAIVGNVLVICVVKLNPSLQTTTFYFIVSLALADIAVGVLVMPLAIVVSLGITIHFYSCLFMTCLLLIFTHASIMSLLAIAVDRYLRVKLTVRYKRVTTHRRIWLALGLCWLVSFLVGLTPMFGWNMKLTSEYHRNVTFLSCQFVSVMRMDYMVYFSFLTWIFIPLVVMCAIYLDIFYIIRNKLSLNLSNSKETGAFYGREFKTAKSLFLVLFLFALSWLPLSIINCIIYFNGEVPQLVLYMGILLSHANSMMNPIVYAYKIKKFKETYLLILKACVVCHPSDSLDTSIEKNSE
Test: Displacement of [3H]PSB-11 from human adenosine A3 receptor expressed on CHO cell membranes assessed as association rate constant after 120 mins by scintillation spectrometry
propertyMeasured: K (×10⁶ /M/s)
Form entry: value (×10⁶ /M/s) — number only.

The examples below pair each entry with its known result.
Req: Name the recorded K of the compound listed here: `COc1ccn2c(c1)nc1c2c(=O)n(CC2CC2)c(=O)n1Cc1ccccc1`
Resp: 2.8

Req: Name the recorded K of the compound listed here: `COc1ccn2c(c1)nc1c2c(=O)n(CC2CC2)c(=O)n1Cc1ccc(Cl)cc1`
Resp: 3

Shift focus to the following entry.
Req: Name the recorded K of the compound listed here: `CCCCCn1c(=O)c2c(nc3cc(OC)ccn32)n(Cc2ccccc2)c1=O`
Resp: 1.1
